Here, each record is paired with measured folding stability dG unfold data.
test: folding stability dG unfold (combined trypsin and chymotrypsin); higher = more stable
Express it in kcal/mol; write the number only.

Study these solved cases before continuing.
>>> obsvalue("SAGGSAGGYRIRFKNGIEFKLPMTEGELKKMADNFPGFEVTEVEPVPPPPPPPEDLPPEQREQMSAGGSAGG [r6_881_TrROS]")
-0.0695
>>> obsvalue("SAGMSMSVSVTKDPNSNSITIKVTMPVEPDAVLDLPIKVEVPEKEYEMTVEVTLSPDGLASMTGTITLPSAG [r5_596_JUSTAS]")
2.41
>>> obsvalue("SGMTVTPVTHPNGQTLTLTFDPETGTVTVNRSPAISLEEVKAALEALIPSDRSVTVSTLPDGTAAVTLTASA [r9_933_JUSTAS]")
1.27

Continue with the sequence presented below.
Exercise: Please list folding stability dG unfold recorded for the sequence SAGGSAGGSAEPGPEELAKALAGELEKRFGKPVKEVKAYEIPGEKRYIVTAKLDDGEFTIIASAGGSAGGSA [r18_145_TrMRF]
Key: -0.121
